Recorded values, source patent US20060233788A1.

Target: T1, Fab 1181
T1 construct: Mouse Fab from an Omniclonal library (Biosite); kappa light chain (detected and captured with goat anti-mouse kappa); the HCVR amino acid entry is 12
T1 sequence (VH, as listed by the source, chain 1 of 2): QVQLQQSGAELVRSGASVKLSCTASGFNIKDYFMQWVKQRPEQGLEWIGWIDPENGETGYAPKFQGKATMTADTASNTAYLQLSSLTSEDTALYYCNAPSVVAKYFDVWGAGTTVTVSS
T1 sequence (VL, as listed by the source, chain 2 of 2): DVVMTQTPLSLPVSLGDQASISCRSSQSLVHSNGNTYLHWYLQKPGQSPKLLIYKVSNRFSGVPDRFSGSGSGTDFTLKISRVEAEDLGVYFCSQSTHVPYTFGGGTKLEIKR
Assay: competitive ELISA, Fab 1181 on coated BSA-hGhrelin; compound 5 ug/ml
Description: The plate was incubated at 4° C. overnight. The wells are aspirated and washed twice with washing buffer (20 mM Tris-Cl, pH 7.4, 0.15 M NaCl, 0.1% Tween 20). Compounds (i.e., human ghrelin or ghrelin analogs) are diluted into antibody solution. […] Peroxidase-conjugated secondary antibody (50 μl goat anti-mouse kappa HRP (Southern Biotech), diluted 1:2000 in blocking buffer) is added to each well and incubated for 1 hour at room temperature. […] The absorbance of the wells is read at 490 nm. […]
No end group written: not given here. *: point of attachment. Octanoyl = CCCCCCCC(=O)*
observable: Ave. OD (OD)

binder	Ave. OD [OD]
GSSFLSPEHQKAQQRKESKKPPAKLQPR (peptide, UniProt Q9QYH7 24-51, looked up, also: acylated (position and acyl group not given here), mature; The UniProt entry is the precursor; the assay used the ghrelin peptide; also called rGhrelin) [full-length, acylated rat ghrelin]	0.178
GSS(Octanoyl)FLSPE (also called hGhrelin (1-8 acyl); Human 1-8 acyl) [Ghrelin (1-8 acyl)]	1.21
HQRVQQRKESKKPPAKLQPR (also called hGhrelin (9-28)) [Ghrelin (9-28)]	1.11
GSSFLSPE (also called hGhrelin (1-8 desacyl)) [Ghrelin (1-8, desacyl)]	1.18
GSSFLSPEHQRVQQRKESKKPPAKLQPX (octanoyl group on the serine at position 3, the 1-28 form has Arg at 28; also called hGhrelin; acylated hGhrelin) [full-length human ghrelin (1-28) acylated with an octanoyl group on the serine at position 3]	0.0445
